B1: Hairpin Ribozyme (parent)
chain: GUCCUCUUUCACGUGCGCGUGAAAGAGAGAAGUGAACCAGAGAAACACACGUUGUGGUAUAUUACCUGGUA

variants of: B1; experiment: self-cleavage, relative activity (ratio to wild type); higher = more cleavage; co-transcriptional
Each entry gets 0 if its self-cleavage stays under 0.2, and 1 if its self-cleavage is 0.2 or above.

The following variants have reported results that may help.
# mutationList, classification
rows = [
    ("U20G G68C", 0),
    ("G27U C66A", 0),
    ("A23U G29A", 0),
    ("A31U C37A", 0),
    ("C4A U53A", 1),
    ("U20A G54A", 1),
    ("A45C A49C", 0),
    ("C18U", 1),
]

Input: Check this variant for self-cleavage at or above 0.2: C3A G15U
Output: 1

Input: Hi team, for G51C A59U , is the recorded self-cleavage at or above 0.2?
Output: 0

Input: Check if self-cleavage >= 0.2 (inclusive). Item: G17C G19C
Output: 1

Input: Can C38G C65A be said to have self-cleavage at or above 0.2?
Output: 0

Input: Can G27U A61G be said to have self-cleavage at or above 0.2?
Output: 0
